For each entry below, report its protein stability index value.
B1: GFOD1 (parent)
chain: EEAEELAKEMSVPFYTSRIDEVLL

- Variants of: B1
- Test: protein stability index of a GFP-peptide fusion (GPS, HEK-293T) (PSI 1-6); higher = more stable;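 further: lentivirally expressed fusions sorted by FACS into six bins by GFP to DsRed ratio, PSI derived from sequencing read proportions per bin multiplied by bin number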
- Run conditions: c terminus: a fixed tail appended
Numbers only.

# Change, protein stability index
measured = [
    ("A7C", 4.06),
    ("T16I", 3.08),
    ("P13G", 4.02),
    ("E5F", 2.94),
    ("I19H", 4.85),
    ("M10D", 4.7),
]

Okay, here is my list. What is protein stability index for each of these?
1. V12E
2. E21F
3. V12S

[4.38, 1.42, 4.46]

Where these numbers come from: the supplement of paper PMC10567573
